test system: A549; experiment: Antitumor activity against Homo sapiens (human) A549 cells assessed as cell growth inhibition after 48 hr by MTT assay; type: functional, cell-based; settings: Homo sapiens, A549, 48 h; read-out: IC50
pIC50 listing for selected compounds.
As a rule, pIC50 stands for the negative log10 of the concentration, concentration in M.

Observe how each entry below is paired with its result.
// recorded pIC50 for COc1cccc2c1C(=O)c1c(O)c3c(c(O)c1C2=O)C[C@@](O)(C(=O)CO)C[C@@H]3O[C@H]1C[C@H](N)[C@H](O)[C@H](C)O1 [DOXORUBICIN] : 6.08

Reported pIC50 ( C[C@@H]1CC[C@@]2(OC1)O[C@H]1C[C@H]3[C@@H]4CC[C@@H]5C[C@@H](O[C@@H]6O[C@H](CO)[C@H](O[C@@H]7O[C@H](CO)[C@@H](O)[C@H](O[C@@H]8O[C@H](CO)[C@@H](O)[C@H](O)[C@H]8O)[C@H]7O[C@@H]7O[C@H](CO)[C@H](O)[C@H](O)[C@H]7O[C@@H]7OC[C@@H](O)[C@H](O)[C@H]7O)[C@H](O)[C@H]6O)CC[C@]5(C)[C@H]4CC[C@]3(C)[C@H]1[C@@H]2C [Desmettianoside C] ) = 4.99

Others:
# pIC50 (compound: `C[C@@H]1CC[C@@]2(OC1)O[C@H]1C[C@H]3[C@@H]4CC[C@@H]5C[C@@H](O[C@@H]6O[C@H](CO)[C@@H](O)[C@H](O)[C@H]6O[C@@H]6O[C@H](CO)[C@H](O)[C@H](O)[C@H]6O)CC[C@]5(C)[C@H]4CC[C@]3(C)[C@H]1[C@@H]2C` ) is 4.78
